So I've got a bunch of compounds here, and I need their pEC50 values.
# Tested on: HBV viral production from HepAD38 cells
# assay info: Activity of test compounds on viral production from HepAD38 cells (viral load by qPCR of HBV core sequence in supernatant)
# Format: cell-based
# particulars: Hepatitis B virus, 120 h, 5 days incubation, HBV DNA in supernatant by qPCR, top concentration 10 μM, read-out: Viral Load EC50 Activity range
pEC50: −log10 of the molar value.

Value sought for every listed compound: pEC50.
1. CSCCN1[C@H](C(=O)Nc2ccc(F)c(Cl)c2)C[C@H](c2nccs2)NS1(=O)=O
2. CN1C(C(=O)Nc2ccc(F)c(Cl)c2)CC(c2ncc(-c3ccc(F)cc3)s2)NS1(=O)=O (racemic)
3. CN1C(C(=O)Nc2ccc(F)c(Cl)c2)CC(c2ccc(-c3cn[nH]c3)s2)NS1(=O)=O (centres unmarked)
4. COc1ccc(-c2csc([C@H]3C[C@@H](C(=O)Nc4ccc(F)c(Cl)c4)N(C)S(=O)(=O)N3)c2)cc1
5. COc1ccc(CN2C(C(=O)Nc3ccc(F)c(Cl)c3)CC(c3nccs3)NS2(=O)=O)cc1 (centres unmarked)
6. CN1C(C(=O)Nc2ccc(F)c(Cl)c2)CC(c2ncc(-c3cncn3C)s2)NS1(=O)=O (racemic)

Response:
1: > 6.00; 2: > 6.00; 3: > 6.00; 4: > 6.00; 5: < 5.30; 6: > 6.00

Value sought for every listed compound: pEC50.
1. CN1[C@H](C(=O)Nc2cc(Cl)cc(Cl)c2)C[C@H](c2cccs2)NS1(=O)=O
2. [2H]C1[C@]([2H])(c2ncc(-c3cn(C([2H])([2H])[2H])cn3)s2)NS(=O)(=O)N(C([2H])([2H])[2H])[C@]1([2H])C(=O)Nc1ccc(F)c(Cl)c1 (stereo in doubt)
3. [2H]C1[C@]([2H])(c2ccc(Br)s2)NS(=O)(=O)N(C([2H])([2H])[2H])[C@]1([2H])C(=O)Nc1ccc(F)c(Cl)c1 (stereo in doubt)
4. NC(=O)CN1C(C(=O)Nc2ccc(F)c(Cl)c2)CC(c2nccs2)NS1(=O)=O (centres unmarked)

Response:
["> 6.00", "> 6.00", "> 6.00", "5.30 to 6.00"]
